molecular target: Dimer of Gag-Pol polyprotein [489-587] (Human immunodeficiency virus 1, UniProt P12497); construct: 489-587; test: Protease Inhibition Assay; settings: pH 5.5; 37 °C
pKi: −log10 of the molar value.
pKi for assorted compounds

Compound	Value Reported
O=C1N(Cc2ccc(CO)cc2)[C@H](Cc2ccccc2)[C@H](O)[C@@H](O)[C@@H](Cc2ccccc2)N1Cc1ccc(CO)cc1	> 9.00

Next item in the queue.
IN: For O=C1N(Cc2ccc(CO)cc2)[C@H](COc2ccccc2)[C@H](O)[C@@H](O)[C@@H](COc2ccccc2)N1Cc1ccc(CO)cc1 , what is its reported pKi?
OUT: > 9.00
